Data provenance: ChEMBL document CHEMBL5257044

- Method description: Cytotoxicity against African green monkey Vero E6 cells incubated for 48 hrs by CCK-8 assay
- Assay type: toxicity, cell-based, Vero C1008
- Assay conditions: African green monkey (Chlorocebus sabaeus)
Property name: IC50 at 48 h

What the record says about "COc1cc2c(O)c3c(c(-c4ccc5c(c4)OCO5)c2cc1OC)C(=O)OC3" : IC50 at 48 h is > 100 µM
